# Tested on: ACHN renal
# Assay Method Text: NCI tumour cell line growth inhibition, 48 h
Where a SMILES comes first, the peptide text is derived from it. [ ]: non-standard residue; d: D form. The star is where a group is joined. ξ: configuration not given here. Propanoyl(3-(4-MeO-Ph)) = COc1ccc(CCC(=O)*)cc1; Thr(3ξ) = CC(O)[C@H](N)C(=O)O; dNMeL = CN[C@H](CC(C)C)C(=O)O; OBn = c1ccc(CO*)cc1; ξLac = CC(O)C(=O)O
So I've got a bunch of compounds here, and I need their TGI values.

Here is how some compounds turned out for TGI.
[
  {
    "Compound": "N#C/C(=C/C=C/c1ccccc1)S(=O)c1ccccc1 (configuration not stated)",
    "TGI": "0.462 µM"
  },
  {
    "Compound": "COc1ccc(CCC(=O)OC(C)[C@H](NC(=O)[C@@H](CC(C)C)N(C)C(=O)[C@@H]2CCCN2C(=O)C(C)O)C(=O)OCc2ccccc2)cc1 (some centres not stated) (H-[ξLac]P[dNMeL][Thr(3ξ)](Propanoyl(3-(4-MeO-Ph)))-OBn)",
    "TGI": "> 100 µM"
  },
  {
    "Compound": "COc1ccc(CCc2ccc(O)c(C(=O)O)c2)cc1OC",
    "TGI": "> 100 µM"
  },
  {
    "Compound": "COc1cc([C@@H]2c3cc4c(cc3[C@@H](NCc3ccc(C#N)cc3)C3COC(=O)[C@@H]32)OCO4)cc(OC)c1O (some centres not stated)",
    "TGI": "1.55 µM"
  },
  {
    "Compound": "COc1cc([C@@H]2c3cc4c(cc3[C@H](OC(C)=O)[C@H]3COC(=O)[C@H]23)OCO4)cc(OC)c1OC",
    "TGI": "> 100 µM"
  },
  {
    "Compound": "O=C(N/C(=C\\c1ccc([N+](=O)[O-])cc1)c1nc2ccc(Cl)cc2[nH]1)c1ccccc1",
    "TGI": "66.8 µM"
  },
  {
    "Compound": "S=P(c1ccccc1)(c1ccccc1)C1(C2(P(=S)(c3ccccc3)c3ccccc3)CC2)CC1",
    "TGI": "> 100 µM"
  },
  {
    "Compound": "O=C1/C(=C/c2ccccc2)CN(CCC(=O)N2C/C(=C\\c3ccccc3)C(=O)/C(=C/c3ccccc3)C2)C/C1=C\\c1ccccc1",
    "TGI": "30.3 µM"
  }
]

Batch request: TGI per item, same order as input.
1. C/C(=N\NS(=O)(=O)c1ccc(C)cc1)c1c(O)cc(C)oc1=O
2. O=C1CC(c2ccc[nH]2)=NN1c1ccccc1
3. O=C1NC(=O)C(=O)C(c2nc3ccccc3s2)C1=O
4. CN(C)CCNC(=O)c1ccc(NCCCN(C)CCCNc2ccc(C(=O)NCCN(C)C)c3[nH]c4ccc([N+](=O)[O-])cc4c(=O)c23)c2c(=O)c3cc([N+](=O)[O-])ccc3[nH]c12
5. CC(Oc1ccc(OCC2CCCCC2)cc1)C(=O)O (configuration not stated)
6. COC(=O)[C@H](Cc1ccccc1)NP(=O)(O)OCC1OC(n2cc(C)c(=O)[nH]c2=O)CC1N=[N+]=[N-] (some centres not stated)

["> 100 µM", "> 100 µM", "> 100 µM", "1.5 µM", "> 100 µM", "> 100 µM"]

Batch request: TGI per item, same order as input.
1. O=C(NC1CCN(Cc2ccccc2)CC1)c1cc(C(=O)NC2CCN(Cc3ccccc3)CC2)cc(C(=O)NC2CCN(Cc3ccccc3)CC2)c1
2. Cc1ccc(/C=N/Nc2nncc3ccccc23)s1
3. Nn1c(SCC(=O)NCc2ccccc2)nc2ccccc2c1=O

1. > 50 µM
2. > 100 µM
3. > 100 µM
